Biological target: Potassium voltage-gated channel subfamily H member 2 (Homo sapiens, UniProt Q12809)
Sequence (Q12809 whole entry): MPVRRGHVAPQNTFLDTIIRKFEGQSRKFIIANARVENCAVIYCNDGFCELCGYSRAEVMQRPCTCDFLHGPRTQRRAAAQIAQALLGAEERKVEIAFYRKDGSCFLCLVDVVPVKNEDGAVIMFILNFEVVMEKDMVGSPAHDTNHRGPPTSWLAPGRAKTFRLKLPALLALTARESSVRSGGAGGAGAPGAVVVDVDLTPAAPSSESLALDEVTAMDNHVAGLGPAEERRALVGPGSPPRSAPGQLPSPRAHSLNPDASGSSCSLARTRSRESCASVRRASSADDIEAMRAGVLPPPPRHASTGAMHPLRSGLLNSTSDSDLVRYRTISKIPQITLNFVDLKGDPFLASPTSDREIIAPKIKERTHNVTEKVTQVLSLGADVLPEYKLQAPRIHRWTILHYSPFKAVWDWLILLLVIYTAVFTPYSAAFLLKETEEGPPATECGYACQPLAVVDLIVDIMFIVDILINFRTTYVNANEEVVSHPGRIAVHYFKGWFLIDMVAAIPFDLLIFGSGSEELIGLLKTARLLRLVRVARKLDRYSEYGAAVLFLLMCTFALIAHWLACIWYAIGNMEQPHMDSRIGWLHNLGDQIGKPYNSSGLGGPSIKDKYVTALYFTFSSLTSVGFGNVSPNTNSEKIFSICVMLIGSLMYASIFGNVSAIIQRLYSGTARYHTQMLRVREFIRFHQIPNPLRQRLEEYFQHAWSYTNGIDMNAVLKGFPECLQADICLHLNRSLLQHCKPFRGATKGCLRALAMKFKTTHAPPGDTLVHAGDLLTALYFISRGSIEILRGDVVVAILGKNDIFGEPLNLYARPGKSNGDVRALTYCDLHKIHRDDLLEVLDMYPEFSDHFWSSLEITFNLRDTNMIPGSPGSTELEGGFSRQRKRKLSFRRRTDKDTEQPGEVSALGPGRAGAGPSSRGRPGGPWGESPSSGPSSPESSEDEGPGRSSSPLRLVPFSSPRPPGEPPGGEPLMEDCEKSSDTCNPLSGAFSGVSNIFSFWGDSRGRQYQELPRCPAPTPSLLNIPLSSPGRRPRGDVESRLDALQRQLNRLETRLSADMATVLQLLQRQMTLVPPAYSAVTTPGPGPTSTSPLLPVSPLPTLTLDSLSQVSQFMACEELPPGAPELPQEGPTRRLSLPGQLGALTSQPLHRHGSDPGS
Assay: Inhibition of rapid delayed inward rectifying potassium current (IKr) measured using manual patch clamp assay
readout.name: IC50 (mM)
Reply with just the number (in mM).

# lookup: O=C(O)c1ccc(-n2nc(-c3ccccc3O)nc2-c2ccccc2O)cc1 [CHEBI:49005] on Potassium voltage-gated channel subfamily H member 2 (Homo sapiens, UniProt Q12809), IC50 = 3.98
